Provenance of the data: ChEMBL document CHEMBL5058577

test system: Fibroblast; assay: Multiplex assay against human fibroblast; type: toxicity, cell-based; details: 48 h, 10 µM, compound concentration 10 uM, replicate 2
Non-standard residues stand in square brackets, D forms with d. Residues, ends and D or L forms follow the SMILES beside them.

MOLECULE: CCn1c(-c2nc3cc(C(=O)N4CCCC(N)C4)ccc3n2C)cc2ccccc21.Cl (centres undefined)
STUDY SYSTEM: Fibroblast
Total Cell Count: 231
--
MOLECULE: C[C@H](NC(=O)CNC(=O)c1cccc(Cl)c1)c1ccccc1
STUDY SYSTEM: Fibroblast
Total Cell Count: 121
--
MOLECULE: CN(C)C(=O)Cn1cc(-c2ccc(-c3nnc4ccccn34)cc2)cn1
STUDY SYSTEM: Fibroblast
Total Cell Count: 131
--
MOLECULE: CCCCCCNC(=O)Nc1ccc(S(=O)(=O)Nc2ccc(CCNC[C@H](O)COc3ccc(O)cc3)cc2)cc1
STUDY SYSTEM: Fibroblast
Total Cell Count: 184
--
MOLECULE: Cc1cc(NC(=O)NCCN2CCC(O)(Cc3ccccc3)CC2)c2ccccc2n1
STUDY SYSTEM: Fibroblast
Total Cell Count: 112
--
MOLECULE: C=CCN1C[C@H](C(=O)N(CCCN(C)C)C(=O)NCC)C[C@@H]2c3cccc4[nH]cc(c34)C[C@H]21
STUDY SYSTEM: Fibroblast
Total Cell Count: 170
--
MOLECULE: CSc1nc(NC2CCCC2)c([N+](=O)[O-])c(NC2CCCC2)n1
STUDY SYSTEM: Fibroblast
Total Cell Count: 193
--
MOLECULE: O=C(O)CCC/C=C\CC1C(O)CC(O)C1/C=C/C(O)COc1cccc(Cl)c1 (centres undefined)
STUDY SYSTEM: Fibroblast
Total Cell Count: 108
--
MOLECULE: COc1cc2nc(N3CCN(C(=O)COc4c(OC)cccc4C(C)C)CC3)nc(N)c2cc1OC.Cl.Cl
STUDY SYSTEM: Fibroblast
Total Cell Count: 311
--
MOLECULE: COc1cc2nc(N3CCN(C(=O)c4ccco4)CC3)nc(N)c2cc1OC.Cl [PRAZOSIN HYDROCHLORIDE]
STUDY SYSTEM: Fibroblast
Total Cell Count: 170
--
MOLECULE: Cc1cc(=O)n(C)c2cc(N3C(=O)CC[C@H](NS(=O)(=O)CC(C)C)[C@H]3c3ccc(Cl)cc3)ccc12
STUDY SYSTEM: Fibroblast
Total Cell Count: 141
--
MOLECULE: Cc1cc(-c2ccc3c(c2)CC[C@H]3N2CC3(CCN(C(=O)Cc4cn5cc(C)sc5n4)CC3)C2)ncn1
STUDY SYSTEM: Fibroblast
Total Cell Count: 135
--
MOLECULE: N[C@](CC1c2ccccc2Oc2ccccc21)(C(=O)O)[C@H]1C[C@@H]1C(=O)O
STUDY SYSTEM: Fibroblast
Total Cell Count: 115
--
MOLECULE: Cn1cc(C(=O)OCC2CCN(CCNS(C)(=O)=O)CC2)c2ccccc21
STUDY SYSTEM: Fibroblast
Total Cell Count: 190
--
MOLECULE: CC(C)C[C@H](CO)Nc1nc(S[C@@H](C)c2ccccc2)nc2nc(N)sc12
STUDY SYSTEM: Fibroblast
Total Cell Count: 121
--
MOLECULE: Cc1c(Cc2ccc3ccccc3n2)c2cc(F)ccc2n1CC(=O)O
STUDY SYSTEM: Fibroblast
Total Cell Count: 157
--
MOLECULE: O=c1nc2[nH]c3ccccc3nc-2c(=O)[nH]1
STUDY SYSTEM: Fibroblast
Total Cell Count: 81
--
MOLECULE: CC(C)(O)C(=O)N1CCN(c2ccc(C(F)(F)F)c(C3=C(c4c[nH]c5ccccc45)C(=O)NC3=O)c2)CC1
STUDY SYSTEM: Fibroblast
Total Cell Count: 129
--
MOLECULE: COCCn1c(C)c(C)s/c1=N\C(=O)C1C(C)(C)C1(C)C
STUDY SYSTEM: Fibroblast
Total Cell Count: 111
--
MOLECULE: COc1ccc2c(c1OCc1ccccc1)C[C@@H](C(=O)O)N(C(=O)C(c1ccccc1)c1ccccc1)C2
STUDY SYSTEM: Fibroblast
Total Cell Count: 163
--
MOLECULE: Nc1nc(-c2ccco2)c2cnn(Cc3ccccc3F)c2n1
STUDY SYSTEM: Fibroblast
Total Cell Count: 155
--
MOLECULE: CC(C)C[C@@H]1NC(=O)[C@@H](C(C)C)NC(=O)[C@@H]2CCCN2C(=O)[C@@H](CC(=O)O)NC(=O)[C@@H](Cc2c[nH]c3ccccc23)NC1=O [BQ-123] (cyclo(L[dW][dD]P[dV]))
STUDY SYSTEM: Fibroblast
Total Cell Count: 130
--
MOLECULE: COc1c(Nc2ccc(S(C)(=O)=O)nc2C)ncnc1OC1CCN(C(=O)OC(C)C)CC1
STUDY SYSTEM: Fibroblast
Total Cell Count: 108
--
MOLECULE: CC(F)(F)CN1CCOc2c(nn(-c3ccccc3Cl)c2-c2ccc(Cl)cc2)C1=O
STUDY SYSTEM: Fibroblast
Total Cell Count: 141
--
MOLECULE: Cc1cc(O)c(-c2ccc([C@@H](C)CN(C)C)cc2)c2c1[nH]c(=O)c1sccc12
STUDY SYSTEM: Fibroblast
Total Cell Count: 136
--
MOLECULE: COCCCN1CCC(NC(=O)c2cc(Cl)c(N)c3c2OCC3)CC1 [PRUCALOPRIDE]
STUDY SYSTEM: Fibroblast
Total Cell Count: 146
--
MOLECULE: CN1CCN(c2ccc(Nc3c4ccccc4nc4ccccc34)cc2)CC1.Cl.Cl.O
STUDY SYSTEM: Fibroblast
Total Cell Count: 236
--
MOLECULE: Cc1sc2c(c1C)C(c1ccc(Cl)cc1)=N[C@H](CC(=O)OC(C)(C)C)c1nnc(C)n1-2
STUDY SYSTEM: Fibroblast
Total Cell Count: 170
--
MOLECULE: CN1CCC(C(=O)c2cccc(NC(=O)c3c(F)cc(F)cc3F)n2)CC1
STUDY SYSTEM: Fibroblast
Total Cell Count: 152
--
MOLECULE: CCc1nn2c(C)cc(C)nc2c1Cc1ccc(-c2nnc(C3CCNCC3)o2)cc1
STUDY SYSTEM: Fibroblast
Total Cell Count: 161
--
MOLECULE: CN(C)C/C=C/C(=O)Nc1ccc(C(=O)N2CCCC(Nc3ncc(Cl)c(-c4c[nH]c5ccccc45)n3)C2)cc1 (centres undefined)
STUDY SYSTEM: Fibroblast
Total Cell Count: 130
--
MOLECULE: CCC(=O)OCC(=O)[C@@]1(OC(=O)CC)[C@@H](C)C[C@H]2[C@@H]3CCC4=CC(=O)C=C[C@]4(C)[C@@]3(Cl)[C@@H](O)C[C@@]21C [BECLOMETHASONE DIPROPIONATE]
STUDY SYSTEM: Fibroblast
Total Cell Count: 99
--
MOLECULE: CN1C[C@H](C(=O)N[C@]2(C)O[C@@]3(O)[C@@H]4CCCN4C(=O)[C@H](Cc4ccccc4)N3C2=O)C[C@@H]2c3cccc4[nH]cc(c34)C[C@H]21.CS(=O)(=O)O [DIHYDROERGOTAMINE MESYLATE]
STUDY SYSTEM: Fibroblast
Total Cell Count: 126
--
MOLECULE: COc1cc(C(=O)N2CC[C@@H](O)[C@@H](N)C2)cc2nc(-c3cc4ccccc4n3CC3CC3)n(C)c12.Cl
STUDY SYSTEM: Fibroblast
Total Cell Count: 193

###

test system: HEK-293T; assay: Multiplex assay against HEK293T; format: toxicity, cell-based; conditions: human, 12 h, 1 µM, compound concentration 1 uM, replicate 1
Tick class 1 if Population Apoptotic (%) is 30% or greater. Tick class 0 if Population Apoptotic (%) is less than 30%.

MOLECULE: C[C@H](NC(=O)CNC(=O)c1cccc(Cl)c1)c1ccccc1
LABEL: class 1
--
MOLECULE: O=C(Nc1cc(-c2ccccc2)nn1-c1ccccc1F)c1ccc([N+](=O)[O-])cc1
LABEL: class 1
--
MOLECULE: COc1cc(Nc2ncc3c(n2)-c2ccc(Cl)cc2C(c2c(F)cccc2OC)=NC3)ccc1C(=O)O
LABEL: class 1
--
MOLECULE: COc1cc(C(=O)N2CC[C@@H](O)[C@@H](N)C2)cc2nc(-c3cc4ccccc4n3CC3CC3)n(C)c12.Cl
LABEL: class 1
--
MOLECULE: COc1cc(OC2CCN(C(C)=O)CC2)ccc1C(=O)N1CCC(N2C(=O)OCc3ccccc32)CC1
LABEL: class 0
--
MOLECULE: CCC(=O)OCC(=O)[C@@]1(OC(=O)CC)[C@@H](C)C[C@H]2[C@@H]3CCC4=CC(=O)C=C[C@]4(C)[C@@]3(Cl)[C@@H](O)C[C@@]21C [BECLOMETHASONE DIPROPIONATE]
LABEL: class 1
--
MOLECULE: CC(F)(F)CN1CCOc2c(nn(-c3ccccc3Cl)c2-c2ccc(Cl)cc2)C1=O
LABEL: class 0
--
MOLECULE: CCCCC[C@H](O)/C=C/[C@H]1[C@H](O)CC(=O)[C@@H]1CCCCCCC(=O)O
LABEL: class 1
--
MOLECULE: Cc1cc(O)c(-c2ccc([C@@H](C)CN(C)C)cc2)c2c1[nH]c(=O)c1sccc12
LABEL: class 1
--
MOLECULE: CCCCCCNC(=O)Nc1ccc(S(=O)(=O)Nc2ccc(CCNC[C@H](O)COc3ccc(O)cc3)cc2)cc1
LABEL: class 1
--
MOLECULE: O=c1nc2[nH]c3ccccc3nc-2c(=O)[nH]1
LABEL: class 0
--
MOLECULE: O=C(O)CCC/C=C\CC1C(O)CC(O)C1/C=C/C(O)COc1cccc(Cl)c1 (configuration not stated)
LABEL: class 1
--
MOLECULE: COc1ccc2c(c1OCc1ccccc1)C[C@@H](C(=O)O)N(C(=O)C(c1ccccc1)c1ccccc1)C2
LABEL: class 1
--
MOLECULE: Cc1nn(C)c2nc(NNC(=O)Nc3cc(Cl)nc(Cl)c3)cc(C(C)C)c12
LABEL: class 0
--
MOLECULE: Cc1ccc(OCC(O)C(C)NC(C)C)c2c1CCC2.Cl (configuration not stated)
LABEL: class 1
--
MOLECULE: COc1c(Nc2ccc(S(C)(=O)=O)nc2C)ncnc1OC1CCN(C(=O)OC(C)C)CC1
LABEL: class 0
--
MOLECULE: O=c1ccc2ccc(OCCCCN3CCN(c4cccc5sccc45)CC3)cc2[nH]1
LABEL: class 1
